The compounds listed here are annotated with their ED50.
# Tested on: staphylococcus aureus16
# Method Notes: Curative effect on mouse with abdominal infection (ED50)
# Assay type: in vivo, staphylococcus aureus
# Conditions: Staphylococcus, AUREUS16, 168 h, staphylococcus aureus16, challenging dose 5.2 × 10^3 CFU/0.5 ml, deaths in 7 days, Bliss, read-out: ED50
Numbers only; they are read as mg/kg.

CC[C@H]1OC(=O)[C@H](C)[C@@H](O[C@H]2C[C@@](C)(OC)[C@@H](O)[C@H](C)O2)[C@H](C)[C@@H](O[C@@H]2O[C@H](C)C[C@H](N(C)C)[C@H]2O)[C@](C)(O)C[C@@H](C)CN(C)[C@H](C)[C@@H](O)[C@]1(C)O [azithromycin, reference compound] :: 32
COC1C(OC(C)=O)CC(=O)OC(C)C/C=C/C=C/C(OC2CCC(N(C)C)C(C)O2)C(C)CC(CC=O)C1OC1OC(C)C(OC2CC(C)(O)C(OC(=O)CC(C)C)C(C)O2)C(N(C)C)C1O (centres unmarked) :: 20.9
CC[C@H]1OC(=O)[C@H](C)[C@@H](O[C@H]2C[C@@](C)(OC)[C@@H](O)[C@H](C)O2)[C@H](C)[C@@H](O[C@@H]2O[C@H](C)C[C@H](N(C)C)[C@H]2O)[C@](C)(O)C[C@@H](C)C(=O)[C@H](C)[C@@H](O)[C@]1(C)O [erythrocin, reference compound] :: 82.4
CCC(=O)OC1CC(=O)OC(C)C/C=C/C=C/C(OC2CCC(N(C)C)C(C)O2)C(C)CC(CC=O)C(OC2OC(C)C(OC3CC(C)(O)C(OC(=O)CC(C)C)C(C)O3)C(N(C)C)C2O)C1OC (centres unmarked) :: 20.9

Let's switch to this compound now.
Lookup: Find the measured ED50: item COC1C(O)CC(=O)OC(C)C/C=C/C=C/C(OC2CCC(N(C)C)C(C)O2)C(C)CC(CC=O)C1OC1OC(C)C(OC2CC(C)(O)C(OC(=O)CC(C)C)C(C)O2)C(N(C)C)C1O (centres unmarked) , target or system staphylococcus aureus16.
Found: 23.5

----------
The compounds listed here are annotated with their MIC.
# Test system: staphylococcus aureus12
# Method Notes: MIC against the infecting test organism
# Assay type: cell-based, staphylococcus aureus
# Conditions: read-out: MIC
Numbers only; they are read as µg/mL.

Please review the entries below; each comes with its answer.
COC1C(OC(C)=O)CC(=O)OC(C)C/C=C/C=C/C(OC2CCC(N(C)C)C(C)O2)C(C)CC(CC=O)C1OC1OC(C)C(OC2CC(C)(O)C(OC(=O)CC(C)C)C(C)O2)C(N(C)C)C1O (stereo not shown) [Levoisovalerylspiramycin II, levoisovalerylspiramycin II] :: 1
COC1C(O)CC(=O)OC(C)C/C=C/C=C/C(OC2CCC(N(C)C)C(C)O2)C(C)CC(CC=O)C1OC1OC(C)C(OC2CC(C)(O)C(OC(=O)CC(C)C)C(C)O2)C(N(C)C)C1O (stereo not shown) [Levoisovalerylspiramycin I, levoisovalerylspiramycin I] :: 1
CC[C@H]1OC(=O)[C@H](C)[C@@H](O[C@H]2C[C@@](C)(OC)[C@@H](O)[C@H](C)O2)[C@H](C)[C@@H](O[C@@H]2O[C@H](C)C[C@H](N(C)C)[C@H]2O)[C@](C)(O)C[C@@H](C)CN(C)[C@H](C)[C@@H](O)[C@]1(C)O [azithromycin, reference compound] :: 2

Lookup: Consider the compound CCC(=O)OC1CC(=O)OC(C)C/C=C/C=C/C(OC2CCC(N(C)C)C(C)O2)C(C)CC(CC=O)C(OC2OC(C)C(OC3CC(C)(O)C(OC(=O)CC(C)C)C(C)O3)C(N(C)C)C2O)C1OC (stereo not shown) [Levoisovalerylspiramycin III, levoisovalerylspiramycin III] and give its measured MIC.
Found: 1

Reference source for all entries: patent US8778896B2
